# Tested on: EKVX NSCLC
# PROTOCOL_DETAILS: NCI-60 one-dose screen, 48 h (100 = growth as untreated, 0 = no growth, -100 = all killed)
# SETTINGS: 10 µM unless noted
# Method: Growth inhibition of the EKVX human Non-Small Cell Lung tumor cell line is measured as a screen for anti-cancer activity. Cells are grown in 96 well plates and exposed to the test compound for 48 hours. Compounds are tested at a single concentration, which is 10^-5 M for most compounds. The reported endpoint is percent growth (GI% or GIPRCNT), where numbers from 0 - 100% represent growth inhibition, and numbers from -100% - 0 represent cell death. […]
This is part of a sample that, as a whole, favours compounds with a hit. Of some 83,000 tested, about 20% had one in any assay.
Hi there, I'd appreciate the recorded growth for every entry that follows.
One number for each entry, in %.

Each of the following entries comes with a recorded value; kindly state growth for each.
1. NNC(=O)CSc1nc2scc(-c3ccccc3)c2c(=O)n1-c1ccccc1
2. Cc1ccc(C)c2c1SC1=NNC(Oc3ccc(Cl)cc3)=C(C#N)C(=N)N12
3. COc1ccc(-c2conc2-n2nc(-c3ccccc3)nc2-c2ccccc2)cc1

a:
1. 103
2. 100
3. 101

// data source = PubChem BioAssay (NCI)
